Data provenance: patent US11254686B1

Target: adenosine A2B receptor (Homo sapiens (Human))
Test Method Notes: Adenosine receptor activity assay (Table 1), A2B activity
Type: biochemical
Applied Conditions: read-out: Ave A2B cAMP IC50
pIC50: −log10 of the molar value.
Here, each record is paired with measured pIC50 data.

Past entries and their recorded results:
* C[C@H](Nc1nc(C(=O)N2CC(NC(=O)C3CCOC3)C2)c2sccc2n1)c1cncc(F)c1 (some centres unmarked) | > 8.00
* CNc1cc2nc(N[C@@H](C)c3cncc(F)c3)nc(C(=O)N3CC[C@@H](O)C3)c2s1 | > 8.00
* COc1ccc(CNc2nc(C(=O)NC3CCC3)c3sccc3n2)cn1 | < 6.30

Per the record, CCN(CC)C(=O)c1nc(N[C@@H](C)c2cccnc2)nc2ccsc12 has pIC50 of < 6.30

Please fill in: pIC50 reported for O=C(NC1CCC1)c1nc(NCc2cncc(F)c2)nc2ccsc12 = > 8.00

====

Quick list: pIC50 per entry.
Target: adenosine A2A receptor (Homo sapiens (Human), UniProt P29274)
Sequence (P29274 whole entry): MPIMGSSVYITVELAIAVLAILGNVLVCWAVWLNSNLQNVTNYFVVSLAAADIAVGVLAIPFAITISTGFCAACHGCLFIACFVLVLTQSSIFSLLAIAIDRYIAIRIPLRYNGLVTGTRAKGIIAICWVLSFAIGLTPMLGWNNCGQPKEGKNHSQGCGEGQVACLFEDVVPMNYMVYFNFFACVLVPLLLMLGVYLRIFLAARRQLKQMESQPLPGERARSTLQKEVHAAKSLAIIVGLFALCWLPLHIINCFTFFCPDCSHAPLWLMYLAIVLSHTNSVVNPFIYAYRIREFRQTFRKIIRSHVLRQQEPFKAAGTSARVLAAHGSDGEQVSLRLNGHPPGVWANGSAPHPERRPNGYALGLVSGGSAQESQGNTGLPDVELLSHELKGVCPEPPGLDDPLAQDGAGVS
Test Method Notes: Adenosine receptor activity assay (Table 1), A2A activity
Format: biochemical
Applied Conditions: read-out: Ave A2A cAMP IC50
pIC50: −log10 of the molar value.

- Cc1cc2nc(N[C@@H](C)c3ccccn3)nc(C(=O)NCc3nccs3)c2s1: 6.30 to 7.00
- COc1cc(F)cc(CNc2nc(C(=O)N3CC(C)(O)C3)c3sccc3n2)c1: < 6.30
- C[C@H](Nc1nc(C(=O)N[C@H]2CCN(C(=O)OC(C)(C)C)C2)c2sccc2n1)c1ccccn1: 7.30 to 8.00
- C[C@H](Nc1nc(C(=O)NCCO)c2sc(N)cc2n1)c1ccccn1: < 6.30
- Cc1csc2c(C(=O)NCc3cccnc3)nc(N[C@@H](C)c3ccccn3)nc12: 7.30 to 8.00

Looking up O=C(NCc1cccnn1)c1nc(NCc2cccnn2)nc2ccsc12 , I see its pIC50 listed as < 6.30

// recorded pIC50 for CC1(C)CCN(C(=O)c2nc(NCc3cncnc3)nc3ccsc23)C1 : < 6.30

In plain terms, Cc1cc2nc(N[C@@H](C)c3cccnc3)nc(C(=O)N3CC(CNC(=O)OC(C)(C)C)C3)c2s1 has a documented pIC50 of < 6.30

====

Target: adenosine A2A receptor (Homo sapiens (Human), UniProt P29274)
Test Method Notes: Adenosine receptor activity assay (Table 1), A2A activity
Type: biochemical
Applied Conditions: read-out: Ave A2A cAMP IC50
Experimental Endpoint: IC50

Example compounds with recorded IC50:
• COC1CN(C(=O)c2nc(N[C@@H](C)c3cncc(Cl)c3)nc3ccsc23)C1 = 0.1 to 0.5 µM
• C[C@H](Nc1nc(C(=O)N2CC[C@H](CO)C2)c2sccc2n1)c1cccnc1 = 0.1 to 0.5 µM
• O=C(NC1CCC1)c1nc(NCc2cnccn2)nc2ccsc12 = 0.1 to 0.5 µM
• CN(C(=O)OC(C)(C)C)C1CN(C(=O)c2nc(NCc3cncc(F)c3)nc3ccsc23)C1 = 0.1 to 0.5 µM
• C[C@H](Nc1nc(C(=O)N2CCOCC2)c2sccc2n1)c1cccnc1 = > 0.5 µM
• COCC(Nc1nc(C(=O)N2CC(OC)C2)c2sccc2n1)c1cccnc1 (centres unmarked) = 0.05 to 0.1 µM
• CO[C@@H](C)CNC(=O)c1nc(N[C@@H](C)c2cccnc2)nc2cc(C)sc12 = > 0.5 µM

Short answer for Cc1ncccc1CNC(=O)c1nc(NCc2cccnc2C)nc2ccsc12 : IC50 was > 0.5 µM

====

Target: adenosine A2B receptor (Homo sapiens (Human), UniProt P29275)
Sequence (P29275 whole entry): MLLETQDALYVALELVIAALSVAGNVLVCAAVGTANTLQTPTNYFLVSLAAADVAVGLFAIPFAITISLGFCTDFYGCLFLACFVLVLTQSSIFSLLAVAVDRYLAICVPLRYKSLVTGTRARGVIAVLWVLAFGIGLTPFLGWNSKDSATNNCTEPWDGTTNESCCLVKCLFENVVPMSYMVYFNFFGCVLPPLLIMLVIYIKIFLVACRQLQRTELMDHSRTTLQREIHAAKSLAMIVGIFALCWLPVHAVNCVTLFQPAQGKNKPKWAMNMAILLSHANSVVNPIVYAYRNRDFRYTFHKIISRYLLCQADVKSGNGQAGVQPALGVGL
Test Method Notes: Adenosine receptor activity assay (Table 1), A2B activity
Assay type: biochemical
Applied Conditions: read-out: Ave A2B cAMP IC50
pIC50: −log10 of the molar value.
// reported pIC50 for each item listed

Worked set:
- CC1(C)CCN(C(=O)c2nc(NCc3cncnc3)nc3ccsc23)C1: < 6.30
- C[C@H](Nc1nc(C(=O)N2CC[C@@H](F)C2)c2sc(N)cc2n1)c1cccnc1: 7.30 to 8.00
- C[C@H](Nc1nc(C(=O)NCc2cncnc2)c2sccc2n1)c1cccnc1: < 6.30
- C[C@H](Nc1nc(C(=O)N2CCC(C(=O)O)C2)c2sccc2n1)c1ccccn1 (stereo partly drawn): < 6.30
- C[C@H](Nc1nc(C(=O)N[C@@H]2CC[C@@H](O)C2)c2sccc2n1)c1cncc(F)c1: 7.30 to 8.00
- C[C@H](Nc1nc(C(=O)N2CC[C@H](O)C2)c2sccc2n1)c1cccc(F)c1: 7.30 to 8.00
- Cc1cc2nc(N[C@@H](C)c3cccnc3)nc(C(=O)N3CC(O)C3)c2s1: > 8.00
- Cc1cc2nc(N[C@@H](C)c3cncc(F)c3)nc(C(=O)N3CC(NC(=O)OC(C)(C)C)C3)c2s1: > 8.00

Form field pIC50, entry CNc1cc2nc(N[C@@H](C)c3cccnc3)nc(C(=O)N3CC[C@H](F)C3)c2s1 : > 8.00

The recorded pIC50 for C[C@H](Nc1nc(C(=O)N2CC[C@@H](O)C2)c2sc(N)cc2n1)c1ccccn1 is 7.00 to 7.30

According to the records, this compound C[C@H](Nc1nc(C(=O)NCc2ccc(C#N)nc2)c2sccc2n1)c1ccccn1 displays pIC50 of 6.30 to 7.00

Quick note, pIC50 for Cc1cc2nc(N[C@@H](C)c3cncc(F)c3)nc(C(=O)NCC(F)(F)F)c2s1 landed at > 8.00

Summary for this compound, C[C@H](Nc1nc(C(=O)N2CC(CN(C)C(=O)C(C)(C)C)C2)c2sccc2n1)c1cncc(F)c1 : pIC50 is 7.30 to 8.00

Sure, the documented pIC50 for C[C@H](Nc1nc(C(=O)NCCC2CCNC2)c2sccc2n1)c1cncc(F)c1 (stereo partly drawn) is 7.30 to 8.00

====

Target: adenosine A2A receptor (Homo sapiens (Human), UniProt P29274)
Test Method Notes: Adenosine receptor activity assay (Table 1), A2A activity
Format: biochemical
Applied Conditions: read-out: Ave A2A cAMP IC50
pIC50: −log10 of the molar value.
Experimental Endpoint: pIC50

- O=C(c1nc(NCc2cccc(Cl)c2)nc2ccsc12)N1CC(O)C1: 6.30 to 7.00
- C[C@H](Nc1nc(C(=O)NCCc2ccc(O)cc2)c2sccc2n1)c1ccccn1: 6.30 to 7.00
- Cc1cc2nc(N[C@@H](C)c3cncc(F)c3)nc(C(=O)N3CC(NC(=O)C(C)(C)C)C3)c2s1: > 8.00
- CC1CCN1C(=O)c1nc(N[C@@H](C)c2cncc(F)c2)nc2ccsc12 (some centres unmarked): 7.00 to 7.30
- Cc1cc2nc(N[C@@H](C)c3cccnc3)nc(C(=O)N3CC[C@@H](O)C3)c2s1: < 6.30

Data point: Cc1cc2nc(N[C@@H](C)c3cncc(F)c3)nc(C(=O)N3CC[C@@H]3C)c2s1 ; pIC50 = 7.30 to 8.00

For Cc1cc2nc(N[C@@H](C)c3cncc(F)c3)nc(C(=O)N3CC[C@@H](CN)C3)c2s1 the compound record lists pIC50 as < 6.30

Lab note: measured pIC50 of C[C@H](Nc1nc(C(=O)N2CCC2)c2sc(N)cc2n1)c1cncc(F)c1 was 7.00 to 7.30

====

Target: adenosine A2A receptor (Homo sapiens (Human))
Test Method Notes: Adenosine receptor activity assay (Table 1), A2A activity
Assay type: biochemical
Applied Conditions: read-out: Ave A2A cAMP IC50
pIC50: −log10 of the molar value.
Experimental Endpoint: pIC50

// known answers, use as guide
* C[C@H](Nc1nc(C(=O)N2CC[C@@H](NC(=O)OC(C)(C)C)C2)c2sccc2n1)c1cccnc1 | 6.30 to 7.00
* COCC(Nc1nc(C(=O)N2CCCC2)c2sccc2n1)c1cccnc1 (centres unmarked) | 6.30 to 7.00
* Cc1csc2c(C(=O)NC3CCC3)nc(N[C@@H](C)c3ccccn3)nc12 | 7.30 to 8.00
* COc1cccc(CCNC(=O)c2nc(N[C@@H](C)c3ccccn3)nc3c(C)csc23)c1 | 7.00 to 7.30
* Cc1cc2nc(N[C@@H](C)c3cncc(F)c3)nc(C(=O)N3CC(C(=O)OC(C)(C)C)C3)c2s1 | 6.30 to 7.00

Form: compound = C[C@H](Nc1nc(C(=O)Nc2ccccc2)c2sccc2n1)c1ccccn1 ; pIC50 = 6.30 to 7.00

For record C[C@H](Nc1nc(C(=O)NCc2ccccc2)c2sccc2n1)c1cccnc1 the listed pIC50 is 7.30 to 8.00

The measured pIC50 associated with CCOC(=O)N(C)C1CN(C(=O)c2nc(N[C@@H](C)c3cncc(F)c3)nc3cc(C)sc23)C1 reads 7.00 to 7.30
